Tested on: PKN1
Settings: concentration: 1 μM, replicates: in singlicate; n = 1;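 note: KINOMEscan kinase panel screen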
Attribute: %Inh
Entry format: amount then unit.

Below: 7 compounds and their reported %Inh.
Lab book: %Inh of COc1ccc(Nc2nccc(N3CCC(NC(=O)Nc4cccc(OC)c4)C3)n2)cc1 (centres unmarked) noted as 0%

Lab book: %Inh of CCCCc1nn2ncccc2c1-c1ccnc(Nc2ccc(N3CCN(C)CC3)cc2)n1 noted as 5%

Lab book: %Inh of Cl.Cl.NCC(C(=O)Nc1cc(Br)c(-c2ccnc3[nH]ccc23)s1)c1ccccc1 (centres unmarked) noted as 100%

Lab book: %Inh of Cc1cccc(Nc2nc(N[C@H]3CCNC3)ncc2C(N)=O)c1.Cl noted as 3%

Lab book: %Inh of COc1ccc(Nc2nccc(NCCNC(=O)c3cc4ccccc4s3)n2)cc1 noted as 0%

Lab book: %Inh of Oc1cc(Nc2ccnc3cc(I)ccc23)ccc1F noted as 19%

Lab book: %Inh of NCCCC(NC(=O)c1cc(Br)c(-c2ccnc3[nH]ccc23)s1)c1ccccc1.O=C(O)C(F)(F)F.O=C(O)C(F)(F)F (centres unmarked) noted as 18%

Next:
Lab book: %Inh of Fc1ccc(-c2ncn(C3CCNCC3)c2-c2ccnc(Oc3ccc(-c4ccccc4)cc3)n2)cc1 noted as 0%

----------
Tested on: MAP4K3
Settings: concentration: 1 μM, replicates: in singlicate; n = 1
Met means recorded %Inh is 2% or above; Not met means it is below 2%.

Consider the following illustrative entries.
Hi team, for COc1cccc(C2=C(Nc3ccc(Cl)c(C(=O)O)c3)C(=O)NC2=O)c1 [SB-390769] , is the recorded %Inh at or above 2%?
Not met

Hi team, for NCCCC(NC(=O)c1cc(Br)c(-c2ccnc3[nH]ccc23)s1)c1ccccc1.O=C(O)C(F)(F)F.O=C(O)C(F)(F)F (stereo not shown) [GSK1287544] , is the recorded %Inh at or above 2%?
Met

Hi team, for COC(=O)Nc1nc2ccc(Oc3ccc(NC(=O)Nc4cc(C(F)(F)F)ccc4F)cc3)cc2n1C.Cl [GW692089] , is the recorded %Inh at or above 2%?
Not met

Next:
Hi team, for Cn1cc(-c2[nH]c3cc(NC(=O)[C@H](N)C4CCCCC4)cc4c3c2C=NNC4=O)cn1 , is the recorded %Inh at or above 2%?
Met

Hi team, for Nc1ncnc2c1nc(-c1ccccc1)n2-c1ccccc1 [SKF-97293] , is the recorded %Inh at or above 2%?
Met

Hi team, for O=C(NC1CCN(c2ccnc(Nc3ccc(F)cc3)n2)C1)c1cc2ccccc2s1 (stereo not shown) [GSK1379716] , is the recorded %Inh at or above 2%?
Not met

----------
Test system: WNK3
Conditions: concentration: 1 μM, replicates: in singlicate; n = 1
Attribute: %Inh

Below: 3 compounds and their reported %Inh.
Lab book: %Inh of Cc1ccc(C(=O)Nc2ccc(Nc3ccnc4cc(-c5nccs5)ccc34)cc2O)cc1.Cl [GW494702] noted as 38%

Lab book: %Inh of Cn1cc(-c2ccc3c(c2)CCN3C(=O)Cc2cccc(F)c2)c2c(N)ncnc21 [GSK2603358] noted as 48%

Lab book: %Inh of COc1ccc(-c2coc3ccc(-c4nnc(SCc5ccc(OC)c(C(F)(F)F)c5)o4)cc23)cc1 noted as 0%

Next:
Lab book: %Inh of CCn1c(-c2nonc2N)nc2c(C#CC(C)(C)O)ncc(OCCCCN)c21.O=C(O)C(F)(F)F.O=C(O)C(F)(F)F [GSK507274] noted as 21%

Lab book: %Inh of COc1cccc(C(=O)Nc2cccc(Oc3ccc4nc(NC(=O)C5CC5)cn4n3)c2)c1 noted as 0%

Lab book: %Inh of Cl.Cl.NCC(C(=O)Nc1cc(Br)c(-c2ccnc3[nH]ccc23)s1)c1ccccc1 (stereo not shown) [GSK1269851] noted as 25%

Lab book: %Inh of Cl.Cl.NCC(NC(=O)c1cc(-c2ccccc2)c(-c2ccnc3[nH]ccc23)s1)c1ccccc1 (stereo not shown) [GSK1321561] noted as 3%

Value source: paper PMC5540273
